Biological target: OATP1B1 (Homo sapiens)
pIC50: −log10 of the molar value.
Recorded pIC50, one value per entry.
MEASURED_METRIC: pIC50

[[record]]
molecule = "Nc1nc2c(nc(Br)n2[C@@H]2O[C@@H]3COP(=O)(O)O[C@H]3[C@H]2O)c(=O)[nH]1"
measured_metric = "pIC50"
experimental_result = "< 3.52"

[[record]]
molecule = "O=P1(O)OC[C@H]2O[C@@H](n3c(Sc4ccc(Cl)cc4)nc4c(Nc5ccccc5)ncnc43)C[C@@H]2O1"
measured_metric = "pIC50"
experimental_result = 5.09

[[record]]
molecule = "Nc1ncnc2c1nc(Br)n2C1OC2COP(O)(=S)OC2C1O (single isomer, unassigned)"
measured_metric = "pIC50"
experimental_result = "< 3.52"

[[record]]
molecule = "COC1C2OP(O)(=S)OCC2OC1n1c(Sc2ccc(Cl)cc2)nc2c(N)ncnc21 (single isomer, unassigned)"
measured_metric = "pIC50"
experimental_result = "< 3.52"

[[record]]
molecule = "Nc1nc2c(ncn2[C@@H]2O[C@@H]3COP(=O)(O)O[C@H]3[C@H]2O)c(=O)[nH]1"
measured_metric = "pIC50"
experimental_result = "< 3.52"

[[record]]
molecule = "Nc1ncnc2c1nc(Br)n2[C@@H]1O[C@@H]2COP(=O)(O)O[C@H]2[C@H]1O"
measured_metric = "pIC50"
experimental_result = "< 3.52"


====

Molecular target: OATP1B1 (Homo sapiens, UniProt Q9Y6L6)
Sequence (Q9Y6L6 1-691): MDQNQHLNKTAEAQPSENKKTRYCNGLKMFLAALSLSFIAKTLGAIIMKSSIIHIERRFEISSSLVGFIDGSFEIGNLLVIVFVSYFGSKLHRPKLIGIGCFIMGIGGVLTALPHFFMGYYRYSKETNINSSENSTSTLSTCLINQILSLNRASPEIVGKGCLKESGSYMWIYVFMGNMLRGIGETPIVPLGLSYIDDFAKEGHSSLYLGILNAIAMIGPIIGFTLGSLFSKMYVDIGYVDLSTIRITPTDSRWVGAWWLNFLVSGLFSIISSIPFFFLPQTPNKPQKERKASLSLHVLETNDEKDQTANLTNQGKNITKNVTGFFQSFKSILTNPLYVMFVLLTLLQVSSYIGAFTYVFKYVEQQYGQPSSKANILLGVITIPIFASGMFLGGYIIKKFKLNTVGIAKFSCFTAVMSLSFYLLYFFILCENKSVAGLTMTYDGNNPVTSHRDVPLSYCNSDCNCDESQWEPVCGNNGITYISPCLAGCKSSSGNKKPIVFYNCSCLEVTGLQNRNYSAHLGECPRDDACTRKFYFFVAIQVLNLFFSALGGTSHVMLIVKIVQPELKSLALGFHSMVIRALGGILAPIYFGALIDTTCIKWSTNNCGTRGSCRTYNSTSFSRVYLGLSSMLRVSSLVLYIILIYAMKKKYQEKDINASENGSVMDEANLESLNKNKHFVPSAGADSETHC
pIC50: −log10 of the molar value.
Recorded pIC50, one value per entry.
MEASURED_METRIC: pIC50

[[record]]
compound = "CO[C@@H]1[C@@H]2OP(=O)(O)OC[C@H]2O[C@H]1n1c(Sc2ccc(Cl)cc2)nc2c(N)ncnc21"
relation_operator = "="
experimental_result = 4.33

[[record]]
compound = "CO[C@H]1C2OP(=O)(O)OC[C@H]2O[C@H]1n1c(Br)nc2c(N)ncnc21 (stereo partly shown)"
relation_operator = "<"
experimental_result = 3.52

[[record]]
compound = "Nc1nc2c(nc(Sc3ccc(Cl)cc3)n2[C@@H]2O[C@@H]3COP(=O)(O)O[C@H]3[C@H]2O)c(=O)[nH]1"
relation_operator = "="
experimental_result = 3.59

[[record]]
compound = "Nc1ncnc2c1nc(Sc1ccc(Cl)cc1)n2C1CC2OP(=O)(O)OCC2O1 (stereo not shown)"
relation_operator = "="
experimental_result = 3.65

[[record]]
compound = "CO[C@H]1C2OP(O)(=S)OC[C@H]2O[C@H]1n1c(Sc2ccc(Cl)cc2)nc2c(N)ncnc21 (single isomer, unassigned)"
relation_operator = "="
experimental_result = 4.70

[[record]]
compound = "Nc1ncnc2c1nc(Sc1ccc(Cl)cc1)n2[C@@H]1O[C@@H]2COP(=O)([O-])O[C@H]2[C@H]1O.[Na+]"
relation_operator = "="
experimental_result = 3.89

[[record]]
compound = "CCCC(=O)Nc1ncnc2c1ncn2[C@@H]1O[C@@H]2COP(=O)(O)O[C@H]2[C@H]1O"
relation_operator = "<"
experimental_result = 3.52


====

Target: OATP1B3 (Homo sapiens, UniProt Q9NPD5)
Sequence (Q9NPD5 whole entry): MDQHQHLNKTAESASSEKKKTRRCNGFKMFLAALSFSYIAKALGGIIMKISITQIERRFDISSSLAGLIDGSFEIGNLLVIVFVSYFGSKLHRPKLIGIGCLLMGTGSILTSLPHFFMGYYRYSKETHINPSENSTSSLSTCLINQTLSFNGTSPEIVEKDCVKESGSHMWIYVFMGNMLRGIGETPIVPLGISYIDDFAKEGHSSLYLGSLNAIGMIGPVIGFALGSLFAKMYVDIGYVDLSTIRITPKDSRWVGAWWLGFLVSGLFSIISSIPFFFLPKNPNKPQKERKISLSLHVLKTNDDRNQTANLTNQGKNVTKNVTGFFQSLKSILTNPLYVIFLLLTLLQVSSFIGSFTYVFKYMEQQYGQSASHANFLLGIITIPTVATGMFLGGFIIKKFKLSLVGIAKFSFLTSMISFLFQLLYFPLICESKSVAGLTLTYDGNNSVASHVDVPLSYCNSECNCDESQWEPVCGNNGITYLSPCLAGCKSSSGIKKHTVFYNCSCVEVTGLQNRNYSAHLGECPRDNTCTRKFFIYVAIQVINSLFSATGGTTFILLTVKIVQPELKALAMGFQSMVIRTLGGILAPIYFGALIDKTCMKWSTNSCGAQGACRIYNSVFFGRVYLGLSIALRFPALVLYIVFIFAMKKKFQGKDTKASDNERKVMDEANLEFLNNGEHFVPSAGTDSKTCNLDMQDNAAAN
Assay: cell-based
MEASURED_METRIC: Ki (µM)

[[record]]
structure = "Nc1ncnc2c1nc(Sc1ccc(Cl)cc1)n2[C@@H]1O[C@H](CO)[C@@H](O)[C@H]1O"
measured_metric = "Ki"
experimental_result = 40.2

[[record]]
structure = "CO[C@@H]1[C@H](O)[C@@H](CO)O[C@H]1n1c(Sc2ccc(Cl)cc2)nc2c(N)ncnc21"
measured_metric = "Ki"
experimental_result = 4.61


====

IC50 values recorded for OATP1B3 (Homo sapiens)
MEASURED_METRIC: IC50 (µM)

[[record]]
compound = "Nc1ncnc2c1nc(Sc1ccc(Cl)cc1)n2C1CC2OP(=O)(O)OCC2O1 (stereo not shown)"
measured_metric = "IC50"
relation_operator = "="
experimental_result = 55.7

[[record]]
compound = "Nc1ncnc2c1nc(Br)n2[C@@H]1O[C@@H]2COP(=O)(O)O[C@H]2[C@H]1O"
measured_metric = "IC50"
relation_operator = ">"
experimental_result = 300

[[record]]
compound = "O=P1(O)OC[C@H]2O[C@@H](n3c(Sc4ccc(Cl)cc4)nc4c(Nc5ccccc5)ncnc43)C[C@@H]2O1"
measured_metric = "IC50"
relation_operator = "="
experimental_result = 8

[[record]]
compound = "Nc1nc2c(nc(Sc3ccc(Cl)cc3)n2[C@@H]2O[C@@H]3COP(=O)(O)O[C@H]3[C@H]2O)c(=O)[nH]1"
measured_metric = "IC50"
relation_operator = "="
experimental_result = 88.8

[[record]]
compound = "Nc1ncnc2c1nc(Sc1ccc(Cl)cc1)n2[C@@H]1O[C@@H]2COP(=O)([O-])O[C@H]2[C@H]1O.[Na+]"
measured_metric = "IC50"
relation_operator = "="
experimental_result = 49.6

[[record]]
compound = "Nc1ncnc2c1nc(Br)n2C1OC2COP(O)(=S)OC2C1O (single isomer, unassigned)"
measured_metric = "IC50"
relation_operator = ">"
experimental_result = 300

[[record]]
compound = "CO[C@H]1C2OP(=O)(O)OC[C@H]2O[C@H]1n1c(Br)nc2c(N)ncnc21 (stereo partly shown)"
measured_metric = "IC50"
relation_operator = ">"
experimental_result = 300


====

Biological target: OATP1B1 (Homo sapiens, UniProt Q9Y6L6)
Test: Sodium fluorescein accumulation in OATP1B1-transfected HEK293T cells
Conditions: read-out: Ki for inhibition of sodium fluorescein accumulation, OATP1B1; competitive; inhibitor 10 min before, 3 min co-incubation; ± s.e. of the estimate; R2 0.79
pKi: −log10 of the molar value.
MEASURED_METRIC: pKi

[[record]]
structure = "CO[C@@H]1[C@@H]2OP(=O)(O)OC[C@H]2O[C@H]1n1c(Sc2ccc(Cl)cc2)nc2c(N)ncnc21"
experimental_result = 4.34


====

Target: OATP1B3 (Homo sapiens, UniProt Q9NPD5)
Experiment: in vitro
MEASURED_METRIC: Km (µM)

[[record]]
molecule = "O=C1OC2(c3ccc(O)cc3Oc3cc(O)ccc32)c2ccccc21 [fluorescein, sodium fluorescein]"
measured_metric = "Km"
experimental_result = 285


====

Molecular target: OATP1B1 (Homo sapiens)
Sequence (Q9Y6L6 1-691): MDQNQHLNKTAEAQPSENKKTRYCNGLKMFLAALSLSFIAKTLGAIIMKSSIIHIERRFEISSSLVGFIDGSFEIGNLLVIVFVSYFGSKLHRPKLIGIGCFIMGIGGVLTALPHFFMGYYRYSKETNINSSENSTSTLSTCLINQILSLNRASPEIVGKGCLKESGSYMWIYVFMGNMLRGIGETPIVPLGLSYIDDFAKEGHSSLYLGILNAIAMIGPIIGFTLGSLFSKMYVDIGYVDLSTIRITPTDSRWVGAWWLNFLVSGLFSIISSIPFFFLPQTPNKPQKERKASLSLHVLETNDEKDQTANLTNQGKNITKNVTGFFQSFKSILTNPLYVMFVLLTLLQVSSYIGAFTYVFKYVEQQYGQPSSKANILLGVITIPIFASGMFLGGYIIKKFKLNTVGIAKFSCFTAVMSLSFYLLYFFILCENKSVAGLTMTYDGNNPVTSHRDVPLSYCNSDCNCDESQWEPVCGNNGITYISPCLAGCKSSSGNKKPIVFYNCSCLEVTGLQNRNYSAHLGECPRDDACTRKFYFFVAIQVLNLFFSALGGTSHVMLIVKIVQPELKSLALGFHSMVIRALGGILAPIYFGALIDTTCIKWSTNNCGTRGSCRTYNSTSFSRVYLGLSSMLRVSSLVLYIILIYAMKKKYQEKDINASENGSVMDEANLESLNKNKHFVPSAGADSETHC
MEASURED_METRIC: Effect on Nod-induced apoptosis / Nod transport, OATP1B1-transfected HEK293T cells

[[record]]
compound = "CO[C@@H]1[C@@H]2OP(=O)(O)OC[C@H]2O[C@H]1n1c(Sc2ccc(Cl)cc2)nc2c(N)ncnc21 [8-pCPT-2′-O-Me-cAMP]"
experimental_result = "abolished"

[[record]]
compound = "CO[C@H]1/C=C/O[C@@]2(C)Oc3c(C)c(O)c4c(O)c(cc(O)c4c3C2=O)NC(=O)/C(C)=C\\C=C\\[C@H](C)[C@H](O)[C@@H](C)[C@@H](O)[C@@H](C)[C@H](OC(C)=O)[C@@H]1C [rifamycin SV, Rifamycin SV]"
experimental_result = "abolished"

[[record]]
compound = "Nc1nc2c(ncn2[C@@H]2O[C@@H]3COP(=O)(O)O[C@H]3[C@H]2O)c(=O)[nH]1 [cGMP]"
experimental_result = "did not affect"

[[record]]
compound = "Nc1ncnc2c1ncn2C1OC2COP(=O)(O)OC2C1O (stereo not shown) [cAMP]"
experimental_result = "did not affect"

